biological target: Muscarinic acetylcholine receptor; experiment: In vitro affinity evaluated using [3H]- quinuclidinyl benzilate as radioligand in rat cerebral cortex for muscarinic acetylcholine receptor; format: tissue-based
Value Type: IC50 (nM)
Please state the figure in nM; there is no need to write the unit.

## Input Give its IC50 value. Item: "CO/N=C(\C#N)[C@@H]1CN2CCC1CC2"
## Output 1130

## Input Note, next up: "CO/N=C(\Br)[C@@H]1CN2CC[C@H]1C2"
## Output 2300

## Input Please give the result for "CO/N=C(\C#N)[C@@H]1CN2CC[C@H]1C2" too.
## Output 3175

## Input Try the compound "CO/N=C(\C#N)[C@H]1CN2CC[C@H]1C2"
## Output 2300

## Input Similarly, "CO/N=C(\C#N)[C@H]1CN2CCC1CC2" ?
## Output 310

## Input Follow-up entry: CO/N=C(/C)C12CCCN(CC1)C2 (stereo unspecified)
## Output 3400

* * *

target: Muscarinic acetylcholine receptor M3 (Homo sapiens); assay: In vitro affinity is evaluated, using quinuclidynyl benzylate (QNB) as radioligand in human cloned Muscarinic acetylcholine receptor M3
Sequence (P20309 whole entry): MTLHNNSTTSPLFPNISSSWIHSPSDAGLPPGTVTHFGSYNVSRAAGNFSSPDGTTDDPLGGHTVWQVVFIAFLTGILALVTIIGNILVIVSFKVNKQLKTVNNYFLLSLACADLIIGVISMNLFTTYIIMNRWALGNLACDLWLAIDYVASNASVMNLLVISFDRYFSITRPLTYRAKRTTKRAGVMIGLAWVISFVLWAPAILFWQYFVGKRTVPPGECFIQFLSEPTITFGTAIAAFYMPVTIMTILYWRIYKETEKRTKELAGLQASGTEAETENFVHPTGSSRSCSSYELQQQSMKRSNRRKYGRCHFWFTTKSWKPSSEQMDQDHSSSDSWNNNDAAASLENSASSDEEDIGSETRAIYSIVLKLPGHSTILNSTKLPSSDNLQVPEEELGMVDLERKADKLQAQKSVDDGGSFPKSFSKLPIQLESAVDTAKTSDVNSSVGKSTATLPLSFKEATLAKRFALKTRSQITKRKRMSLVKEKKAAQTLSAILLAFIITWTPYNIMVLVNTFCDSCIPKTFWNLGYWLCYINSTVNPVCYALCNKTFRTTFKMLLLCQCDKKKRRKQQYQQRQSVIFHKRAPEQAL
Value Type: pIC50
The value called pIC50 is obtained by taking minus log10 of the concentration in mol/L.

## Input Please report the recorded pIC50 for "CO/N=C(\C#N)[C@@H]1CN2CC[C@H]1C2" .
## Output 5.92

## Input Quick one: "CO/N=C(\C#N)C12CCN(CC1)C2"
## Output 6.52

## Input What about this compound? "CO/N=C(\C#N)[C@H]1CN2CCC1CC2"
## Output 7.22

## Input Consider next the compound "CO/N=C/[C@H]1CN2CC[C@H]1C2" in the same way.
## Output 5.66

## Input Would you mind doing "CO/N=C(\C#N)[C@H]1CN2CC[C@H]1C2" as well?
## Output 6.42

* * *

Assign pIC50 to each entry below.
Target: UniProt P08172
Sequence (P08172 whole entry): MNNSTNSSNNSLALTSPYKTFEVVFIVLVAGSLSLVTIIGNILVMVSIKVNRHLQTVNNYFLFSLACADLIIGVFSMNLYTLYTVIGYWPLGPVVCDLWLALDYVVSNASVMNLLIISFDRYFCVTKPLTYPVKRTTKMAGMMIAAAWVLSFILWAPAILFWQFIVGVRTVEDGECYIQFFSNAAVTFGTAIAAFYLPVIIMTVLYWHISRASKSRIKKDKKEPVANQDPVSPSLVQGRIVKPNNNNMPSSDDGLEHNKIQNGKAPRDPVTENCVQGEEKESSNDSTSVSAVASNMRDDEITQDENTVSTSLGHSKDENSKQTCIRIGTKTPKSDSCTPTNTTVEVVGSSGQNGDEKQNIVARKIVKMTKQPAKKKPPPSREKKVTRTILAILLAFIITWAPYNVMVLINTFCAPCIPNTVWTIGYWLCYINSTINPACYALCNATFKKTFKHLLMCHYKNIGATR
Assay: In vitro affinity is evaluated, using quinuclidynyl benzylate (QNB) as radioligand in human cloned Muscarinic acetylcholine receptor M2
Interpret pIC50 as the negative base-10 log of the concentration measured in mol/L.

## Input Dear colleague, I am looking for the recorded pIC50 of the following molecule: "CO/N=C/[C@H]1CN2CC[C@H]1C2"
## Output 6.66

## Input Item: CO/N=C(\C#N)[C@H]1CN2CCC1CC2 [SABCOMELINE]
## Output 6.74

## Input Same read-out for "CO/N=C(\C#N)[C@H]1CN2CC[C@H]1C2" ?
## Output 6.21

## Input And what about the molecule "CO/N=C(\C#N)[C@@H]1CN2CC[C@H]1C2" ?
## Output 6.15

## Input Please answer likewise for "CO/N=C(\C#N)C12CCN(CC1)C2"
## Output 6.62

* * *

system: Rattus norvegicus; experiment: Dose producing 50% fall in heart rate in anesthetized rats; format: functional
# note: exactly 0.01 mg/kg is not below, so it is F; use T for ED50 strictly under it

## Input Is it true that ED50 reported for CO/N=C(/C)C12CCCN(CC1)C2 (stereo unspecified) is less than 0.01 mg/kg?
## Output F

## Input Again, but for "COC(=O)C1=CCCN(C)C1"
## Output F

## Input Next compound up: "CO/N=C(\C#N)C12CCN(CC1)C2"
## Output T

## Input Further, for "CO/N=C(\C#N)[C@@H]1CN2CCC1CC2" ?
## Output F

## Input Quick one: CO/N=C(\C#N)C1CN2CCC1CC2 (stereo unspecified)
## Output F

## Input And CO/N=C(\F)C12CCCN(CC1)C2 (stereo unspecified) ?
## Output F

## Input Would you kindly repeat that for "CO/N=C(\C#N)[C@@H]1CN2CC[C@H]1C2" ?
## Output F

## Input Try "CO/N=C(\C#N)[C@H]1CN2CC[C@H]1C2" next.
## Output T

## Input Now this one: CO/N=C(\C)C1CN2CCC1CC2 (stereo unspecified)
## Output F

## Input One more compound: CO/N=C(\Cl)C12CCCN(CC1)C2 (stereo unspecified)
## Output F

* * *

Target: Muscarinic acetylcholine receptor M4 (Homo sapiens, UniProt P08173)
Sequence (P08173 whole entry): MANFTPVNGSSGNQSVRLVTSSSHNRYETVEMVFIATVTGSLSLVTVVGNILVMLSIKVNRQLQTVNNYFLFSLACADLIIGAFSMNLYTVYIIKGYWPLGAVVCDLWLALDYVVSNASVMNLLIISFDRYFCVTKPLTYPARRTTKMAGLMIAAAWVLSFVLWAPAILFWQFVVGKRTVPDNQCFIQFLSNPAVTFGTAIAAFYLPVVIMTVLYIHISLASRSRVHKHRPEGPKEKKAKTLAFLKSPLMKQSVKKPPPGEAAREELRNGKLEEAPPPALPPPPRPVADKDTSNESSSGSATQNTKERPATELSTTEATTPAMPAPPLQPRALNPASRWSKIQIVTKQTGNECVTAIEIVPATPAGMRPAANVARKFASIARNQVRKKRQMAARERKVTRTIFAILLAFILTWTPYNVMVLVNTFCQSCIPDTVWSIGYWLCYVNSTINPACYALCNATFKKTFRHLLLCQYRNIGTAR
Assay: In vitro affinity is evaluated, using quinuclidynyl benzylate (QNB) as radioligand in human cloned Muscarinic acetylcholine receptor M4
For each of the compounds below, state its pIC50.
A value of pIC50 is the negative decimal logarithm of a concentration given in moles per litre.

## Input Entry "CO/N=C(\C#N)[C@@H]1CN2CC[C@H]1C2" : reported pIC50 = ?
## Output 6.01

## Input What about this compound? "CO/N=C(\C#N)C12CCN(CC1)C2"
## Output 6.31

## Input Entry "CO/N=C/[C@H]1CN2CC[C@H]1C2" please
## Output 5.96

## Input Continue with "CO/N=C(\C#N)[C@H]1CN2CCC1CC2"
## Output 7.05

## Input Also need "CO/N=C(\C#N)[C@H]1CN2CC[C@H]1C2" , thanks.
## Output 6.10

* * *

test: Dissociation constant is the negative logarithm of the equilibrium coefficient of the neutral and charged forms of the compound; type: physicochemical
Value Type: pKa
Answer using only a numeral; do not append any unit.

## Input Request the reported pKa associated with CO/N=C(/C)C12CCCN(CC1)C2 (stereo unspecified)
## Output 10.1

* * *

molecular target: Muscarinic acetylcholine receptor M2 (Homo sapiens, UniProt P08172); assay: In vitro affinity is evaluated, using quinuclidinyl benzilate (QNB) as radioligand in human cloned Muscarinic acetylcholine receptor M2
Value Type: pIC50
# pIC50 = -log10(concentration in molar units)

## Input What measured pIC50 is associated with CO/N=C(\C#N)C12CCCN(CC1)C2 (stereo unspecified) on Muscarinic acetylcholine receptor M2 (Homo sapiens, UniProt P08172)?
## Output 7.51

* * *

Please provide measured IC50 for the entries that follow.
target: Muscarinic acetylcholine receptor; assay: In vitro affinity evaluated using [3H]- quinuclidinyl benzilate as radioligand in rat cerebral cortex for muscarinic acetylcholine receptor; assay type: tissue-based

## Input Consider the compound CO/N=C(/C#N)C1CN2CCC1CC2 (centres undefined) and give its measured IC50.
## Output 1.3 µM

## Input Could you do the same for "CC#CCO/N=C/[C@H]1CN2CC[C@H]1C2" , please?
## Output 2.9 µM

## Input Next compound: "C=CCO/N=C/[C@H]1CN2CC[C@H]1C2"
## Output 9.7 µM

## Input Cool, now "CO/N=C(\Cl)[C@@H]1CN2CC[C@H]1C2"
## Output 8.88 µM

* * *

assay: Distribution coefficient is the ratio of concentration in lipid phase to the concentration of compound in aqueous phase.; assay type: physicochemical
Value Type: logD

## Input State the recorded logD for this entry: CO/N=C(/C)C12CCCN(CC1)C2 (stereo unspecified)
## Output -1.13

* * *

biological target: Muscarinic acetylcholine receptor; test: In vitro affinity evaluated using [3H]- oxotremorine as radioligand in rat cerebral cortex for muscarinic acetylcholine receptor; assay type: tissue-based
Value Type: log10 IC50 (log10 of the value in nM)
The figures below represent log10 of IC50, where IC50 is stated in nM.

## Input Fill in the blank: the reported log10 IC50 of "CO/N=C(\Br)[C@@H]1CN2CC[C@H]1C2" is ____.
## Output 2.23

## Input Moving on to "CO/N=C(\C#N)[C@H]1CN2CCC1CC2"
## Output 1.15

## Input Next: "CC#CCO/N=C/[C@H]1CN2CC[C@H]1C2"
## Output 2.06

## Input # repeat for CO/N=C(/C)C12CCCN(CC1)C2 (stereo unspecified)
## Output 1.66

## Input Follow-up entry: "CO/N=C(\C#N)[C@@H]1CN2CC[C@H]1C2"
## Output 1.32

## Input Then what about the compound "CO/N=C(\C#N)[C@@H]1CN2CCC1CC2" ?
## Output 2.15

## Input Also CO/N=C(/C#N)C1CN2CCC1CC2 (stereo unspecified) ?
## Output 2.38

## Input Another compound: "CO/N=C(\F)[C@H]1CN2CC[C@H]1C2"
## Output 0.93

## Input # repeat for "C=CCO/N=C/[C@H]1CN2CC[C@H]1C2"
## Output 2.40

## Input What do you have for "CO/N=C(\Cl)[C@@H]1CN2CC[C@H]1C2" ?
## Output 2.00

## Input Now this one: "CO/N=C(\C#N)[C@H]1CN2CC[C@H]1C2"
## Output 1.36
